TARGET_SYSTEM: STING (Homo sapiens, UniProt Q86WV6)
Sequence (Q86WV6 whole entry): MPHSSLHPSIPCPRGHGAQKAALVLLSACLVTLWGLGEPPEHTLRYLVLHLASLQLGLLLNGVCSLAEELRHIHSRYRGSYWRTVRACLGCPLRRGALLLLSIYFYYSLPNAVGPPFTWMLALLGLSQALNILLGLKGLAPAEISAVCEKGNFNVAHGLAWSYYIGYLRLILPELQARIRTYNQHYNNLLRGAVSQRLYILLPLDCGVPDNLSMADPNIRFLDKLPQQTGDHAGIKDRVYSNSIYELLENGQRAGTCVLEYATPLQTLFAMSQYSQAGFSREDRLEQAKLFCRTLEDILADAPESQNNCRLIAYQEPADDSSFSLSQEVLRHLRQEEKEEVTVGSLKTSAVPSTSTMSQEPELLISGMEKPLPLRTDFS
EXPERIMENTAL_PROTOCOL: IFN-β secretion from THP1 by STING activation (hIFNβ ELISA)
Assay type: cell-based
ASSAY_CONTEXT: THP1 cells; 24 h incubation; IFN-β in supernatant; top dose set according to solubility; read-out: hIFNβ ELISA (EC50)
EXPERIMENTAL_READOUT: EC50 (µM)

The examples below pair each entry with its known result.
CCn1nc(C)c(F)c1C(=O)Nc1nc2cc(C(N)=O)cc(OCCCOC)c2n1CCC[C@H]1COc2cc(C(N)=O)cc3nc(NC(=O)c4c(F)c(C)nn4CC)n1c23 | 0.5
CCn1nc(C)cc1C(=O)Nc1nc2cc(C(N)=O)cc(OCCCNC(=O)CN(C)C)c2n1CCC[C@H]1COc2cc(C(N)=O)cc3nc(NC(=O)c4cc(C)nn4CC)n1c23 | 11.4
CCn1nc(C)cc1C(=O)Nc1nc2cc(C(N)=O)cc(OCCCNC(=O)CN3CCNCC3)c2n1CCC[C@H]1COc2cc(C(N)=O)cc3nc(NC(=O)c4cc(C)nn4CC)n1c23 | 9.1
CCn1nc(C)cc1C(=O)Nc1nc2cc(C(N)=O)cc(OCCCNC(=O)CN(C)C)c2n1CCC[C@H]1COc2cc(C(N)=O)cc3nc(NC(=O)c4c(Cl)c(C)nn4CC)n1c23 | 5.2
CCn1nc(C)cc1C(=O)Nc1nc2cc(C(N)=O)cc(OCCCNC(=O)CN3CC[C@@H](OC)C3)c2n1CCC[C@H]1COc2cc(C(N)=O)cc3nc(NC(=O)c4cc(C)nn4CC)n1c23 | 2.2

(A) CCn1nc(C)cc1C(=O)Nc1nc2cc(C(N)=O)cc(OCCCN(C)C(=O)CN(C)C)c2n1CCC[C@H]1COc2cc(C(N)=O)cc3nc(NC(=O)c4cc(C)nn4CC)n1c23
(B) CCn1nc(C)cc1C(=O)Nc1nc2cc(C(N)=O)cc(OCCCN3CCOCC3)c2n1CCC[C@H]1COc2cc(C(N)=O)cc3nc(NC(=O)c4cc(C)nn4CC)n1c23
Choose between A and B : whose measured EC50 value is numerically larger? Mark your selection by writing its label.
A

====

TARGET_SYSTEM: STING HAQ variant (Homo sapiens, UniProt Q86WV6, G230A/R293Q/R71H)
Construct: host or cells: HEK-Blue ISG KO-STING cells (Invivogen, hkb-kostg)
Sequence (Q86WV6 whole entry R71H/G230A/R293Q): as the sequence (Q86WV6 whole entry) above, with R71H, G230A, R293Q counted along it
EXPERIMENTAL_PROTOCOL: SEAP reporter assay in HEK-Blue ISG KO-STING cells transfected with STING HAQ variant (Method 1)
Type: cell-based
ASSAY_CONTEXT: 1 ng STING vector, compound 5 uM, 24 h, SEAP signal vs 0.5% DMSO
EXPERIMENTAL_READOUT: Fold change related to DMSO control HAQ

CCn1nc(C)c(Br)c1C(=O)Nc1nc2cc(C(N)=O)cc3c2n1[C@@H](CCCn1c(NC(=O)c2cc(C)nn2CCF)nc2cc(C(N)=O)cc(OCCCOC)c21)CO3 [Example 13] | 26.64

(I) CCn1nc(C)cc1C(=O)Nc1nc2cc(C(N)=O)cc(OCCCOC)c2n1CCC[C@H]1COc2cc(C#N)cc3nc(NC(=O)c4cc(C)nn4CC)n1c23 [Example 11]
(II) CCn1nc(C)cc1C(=O)Nc1nc2cc(C(N)=O)cc(OCCCNC(=O)C[C@H]3COCCN3)c2n1CCC[C@H]1COc2cc(C(N)=O)cc3nc(NC(=O)c4cc(C)nn4CC)n1c23 [Example 33]
(III) CCn1nc(C)cc1C(=O)Nc1nc2cc(C(N)=O)cc(OCCCNC(=O)CN3CCNCC3)c2n1CCC[C@H]1COc2cc(C(N)=O)cc3nc(NC(=O)c4cc(C)nn4CC)n1c23 [Example 34]
(IV) CCn1nc(C)cc1C(=O)Nc1nc2cc(C(N)=O)cc(OCCCNC(=O)CN3CCOCC3)c2n1CCC[C@H]1COc2cc(C(N)=O)cc3nc(NC(=O)c4cc(C)nn4CC)n1c23 [Example 21]
# rank_down: sort by Fold change related to DMSO control HAQ, max first Lab note: record answer as labels in requested order.
IV, I, II, III
(IV: 40.44, I: 27.74, II: 16.31, III: 6.51)

(1) CCn1nc(C)cc1C(=O)Nc1nc2cc(C(N)=O)cc3c2n1[C@@H](CCCn1c(NC(=O)c2cc(C)nn2CCF)nc2cc(C(N)=O)cc(OCCCOC)c21)CO3 [Example 12]
(2) CCn1nc(C)cc1C(=O)Nc1nc2cc(C(N)=O)cc(OCCCOC)c2n1CCC[C@H]1COc2cc(C(N)=O)cc3nc(NC(=O)c4c(Br)c(C)nn4CC)n1c23 [Example 9]
(3) CCn1nc(C)cc1C(=O)Nc1nc2cc(C(N)=O)cc(OCCCCNC)c2n1CCC[C@H]1COc2cc(C(N)=O)cc3nc(NC(=O)c4cc(C)nn4CC)n1c23 [Example 23]
Could you please order the items by Fold change related to DMSO control HAQ, going from the lowest number to the highest? Please express your ranking as an ordered list of the labels.
2, 1, 3
